Biological target: T1, thermolysin-cleaved EBOV GP on Jurkat-GP cells (cleaved GP) (Zaire ebolavirus, Makona (GP1 core …, strain))
T1 chain 1: not shown
T1 chain 2: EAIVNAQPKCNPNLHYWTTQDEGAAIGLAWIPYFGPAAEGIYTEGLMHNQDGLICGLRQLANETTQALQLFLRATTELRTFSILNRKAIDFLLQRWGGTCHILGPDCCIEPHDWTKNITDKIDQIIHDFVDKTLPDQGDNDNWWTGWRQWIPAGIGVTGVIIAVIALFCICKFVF
MEASURED PARAMETER: binding result

[[record]]
binder = "5.6.c2526 (antibody, V domains shown) VH: QVQLVESGGGVVQPGGSLRLACAASGFTFSNSGLHWIRQAPGKGLEWMTVISHDGNNKYYADSVKGRFTISRDNSENMLYLQMNSLRPEDTAVYYCARDRIRYSDWGVYYYYNGMDVWGQGTTVTVSS VL: QSVLTQPPSVSAAPGQKVTISCSGSISNIGNHYVSWYKQLPGTAPKVLIYDNNKRPSGIPDRFSGSKSGTSATLGLTGLQTGDEADYFCGTWDSSLSVWVFGGGTKLTVL"
measured_parameter = "binding result"
result = "binds"

[[record]]
binder = "5.6.c2972 (antibody, V domains shown) VH: QVQLQESGPGLVKPSQTLSLTCAVSGGSIRSDDNYWSWIRQPPGKGLEWIGYIYHRGSTYYNPSLKNRVKISVDTSKNQFSLKLSSVTAADTAVYYCARDRIQVVPDGIVHYYYGMDVWGQGTTVTVSS VL: QSVLTQPPSVSAAPGQKVTISCSGSSSNIGNNYVSWYQQLPGTAPKLLIYDNNKRPSGIPDRFSGSKSGTSATLGITGLQTGDEADYYCGTWDNNLSAWVFGGGTKLTVL"
measured_parameter = "binding result"
result = "binds"

